Quick reference for melting point among some compounds

Examples with their reported melting point follow.
[
  {
    "Compound": "COc1ccc(N=C(C#Cc2ccccc2)N2CCN(Cc3ccccc3)CC2)cc1",
    "melting point": "104 °C"
  },
  {
    "Compound": "CC(=O)Nc1nc2c(Oc3cc(N4CCN([C@H](C)c5ccc(F)cc5)CC4)ncn3)cccc2s1",
    "melting point": "244 to 246 °C"
  },
  {
    "Compound": "NCCNC(=O)CC(CO)c1c(Cl)cccc1Cl (configuration not stated)",
    "melting point": "127 to 129 °C"
  },
  {
    "Compound": "CC(C)(C)ON=C1CC(c2ccc(S(C)(=O)=O)cc2)=C1c1ccccc1",
    "melting point": "150 to 152 °C"
  },
  {
    "Compound": "COCc1ncc(C(=O)O)s1",
    "melting point": "131 °C"
  }
]

What measured melting point goes with COc1ccc(NC(=O)Nc2ccc(Cl)c(Cl)c2)cc1NC(=S)Nc1cccc(C(=O)O)c1 ?
209 to 211 °C

What measured melting point goes with CNS(=O)(=O)c1ccc2c(c1)S(=O)(=O)N=C1CCCN12 ?
244 to 247 °C
